Molecular target: Sodium-dependent dopamine transporter (Rattus norvegicus)
Sequence (P23977 whole entry): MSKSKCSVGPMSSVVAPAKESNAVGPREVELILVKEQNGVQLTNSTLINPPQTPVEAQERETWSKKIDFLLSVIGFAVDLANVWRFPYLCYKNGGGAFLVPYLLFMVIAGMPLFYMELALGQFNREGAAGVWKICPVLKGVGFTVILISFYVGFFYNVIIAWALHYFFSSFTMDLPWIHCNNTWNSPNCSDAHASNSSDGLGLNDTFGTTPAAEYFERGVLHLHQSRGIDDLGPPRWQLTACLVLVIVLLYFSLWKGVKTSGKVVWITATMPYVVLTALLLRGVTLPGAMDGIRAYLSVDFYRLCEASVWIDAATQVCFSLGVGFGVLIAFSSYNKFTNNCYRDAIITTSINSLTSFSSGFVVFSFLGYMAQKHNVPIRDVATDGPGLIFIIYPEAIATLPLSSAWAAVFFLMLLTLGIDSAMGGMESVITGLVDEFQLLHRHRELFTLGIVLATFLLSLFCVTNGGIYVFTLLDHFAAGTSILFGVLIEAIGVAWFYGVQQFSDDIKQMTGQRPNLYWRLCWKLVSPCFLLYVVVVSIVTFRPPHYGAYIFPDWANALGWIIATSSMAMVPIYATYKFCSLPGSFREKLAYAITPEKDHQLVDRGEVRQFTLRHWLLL
IC50 less than 6 nM is condition met; IC50 greater than or equal to 6 nM is condition not met.

compound: Cc1noc(C2C3CC[C@H](C[C@@H]2c2ccccc2)N3C)n1 (stereo in doubt; 5a)
discrete.label: condition not met

Challenge: IC50 strictly < 6 nM for this compound? CN1C2CCC1C(C(=O)Oc1ccccc1)C(c1ccc(Cl)cc1)C2 (stereo not given)
Response given: condition met

Challenge: IC50 strictly < 6 nM for this compound? Cc1noc(C2C3CC[C@H](C[C@@H]2c2ccccc2)N3C)n1 (stereo in doubt; 8)
Response given: condition not met

Challenge: IC50 strictly < 6 nM for this compound? COc1ccc(-c2noc(C3C4CC[C@H](C[C@@H]3c3ccc(Cl)cc3)N4C)n2)cc1 (stereo not given in full)
Response given: condition met
